Reference for the values: patent US20120245137A1

Each item that follows carries a reported IC50.
assaySystem: human α1G T-type channels (Homo sapiens, UniProt O43497)
Sequence (O43497 whole entry): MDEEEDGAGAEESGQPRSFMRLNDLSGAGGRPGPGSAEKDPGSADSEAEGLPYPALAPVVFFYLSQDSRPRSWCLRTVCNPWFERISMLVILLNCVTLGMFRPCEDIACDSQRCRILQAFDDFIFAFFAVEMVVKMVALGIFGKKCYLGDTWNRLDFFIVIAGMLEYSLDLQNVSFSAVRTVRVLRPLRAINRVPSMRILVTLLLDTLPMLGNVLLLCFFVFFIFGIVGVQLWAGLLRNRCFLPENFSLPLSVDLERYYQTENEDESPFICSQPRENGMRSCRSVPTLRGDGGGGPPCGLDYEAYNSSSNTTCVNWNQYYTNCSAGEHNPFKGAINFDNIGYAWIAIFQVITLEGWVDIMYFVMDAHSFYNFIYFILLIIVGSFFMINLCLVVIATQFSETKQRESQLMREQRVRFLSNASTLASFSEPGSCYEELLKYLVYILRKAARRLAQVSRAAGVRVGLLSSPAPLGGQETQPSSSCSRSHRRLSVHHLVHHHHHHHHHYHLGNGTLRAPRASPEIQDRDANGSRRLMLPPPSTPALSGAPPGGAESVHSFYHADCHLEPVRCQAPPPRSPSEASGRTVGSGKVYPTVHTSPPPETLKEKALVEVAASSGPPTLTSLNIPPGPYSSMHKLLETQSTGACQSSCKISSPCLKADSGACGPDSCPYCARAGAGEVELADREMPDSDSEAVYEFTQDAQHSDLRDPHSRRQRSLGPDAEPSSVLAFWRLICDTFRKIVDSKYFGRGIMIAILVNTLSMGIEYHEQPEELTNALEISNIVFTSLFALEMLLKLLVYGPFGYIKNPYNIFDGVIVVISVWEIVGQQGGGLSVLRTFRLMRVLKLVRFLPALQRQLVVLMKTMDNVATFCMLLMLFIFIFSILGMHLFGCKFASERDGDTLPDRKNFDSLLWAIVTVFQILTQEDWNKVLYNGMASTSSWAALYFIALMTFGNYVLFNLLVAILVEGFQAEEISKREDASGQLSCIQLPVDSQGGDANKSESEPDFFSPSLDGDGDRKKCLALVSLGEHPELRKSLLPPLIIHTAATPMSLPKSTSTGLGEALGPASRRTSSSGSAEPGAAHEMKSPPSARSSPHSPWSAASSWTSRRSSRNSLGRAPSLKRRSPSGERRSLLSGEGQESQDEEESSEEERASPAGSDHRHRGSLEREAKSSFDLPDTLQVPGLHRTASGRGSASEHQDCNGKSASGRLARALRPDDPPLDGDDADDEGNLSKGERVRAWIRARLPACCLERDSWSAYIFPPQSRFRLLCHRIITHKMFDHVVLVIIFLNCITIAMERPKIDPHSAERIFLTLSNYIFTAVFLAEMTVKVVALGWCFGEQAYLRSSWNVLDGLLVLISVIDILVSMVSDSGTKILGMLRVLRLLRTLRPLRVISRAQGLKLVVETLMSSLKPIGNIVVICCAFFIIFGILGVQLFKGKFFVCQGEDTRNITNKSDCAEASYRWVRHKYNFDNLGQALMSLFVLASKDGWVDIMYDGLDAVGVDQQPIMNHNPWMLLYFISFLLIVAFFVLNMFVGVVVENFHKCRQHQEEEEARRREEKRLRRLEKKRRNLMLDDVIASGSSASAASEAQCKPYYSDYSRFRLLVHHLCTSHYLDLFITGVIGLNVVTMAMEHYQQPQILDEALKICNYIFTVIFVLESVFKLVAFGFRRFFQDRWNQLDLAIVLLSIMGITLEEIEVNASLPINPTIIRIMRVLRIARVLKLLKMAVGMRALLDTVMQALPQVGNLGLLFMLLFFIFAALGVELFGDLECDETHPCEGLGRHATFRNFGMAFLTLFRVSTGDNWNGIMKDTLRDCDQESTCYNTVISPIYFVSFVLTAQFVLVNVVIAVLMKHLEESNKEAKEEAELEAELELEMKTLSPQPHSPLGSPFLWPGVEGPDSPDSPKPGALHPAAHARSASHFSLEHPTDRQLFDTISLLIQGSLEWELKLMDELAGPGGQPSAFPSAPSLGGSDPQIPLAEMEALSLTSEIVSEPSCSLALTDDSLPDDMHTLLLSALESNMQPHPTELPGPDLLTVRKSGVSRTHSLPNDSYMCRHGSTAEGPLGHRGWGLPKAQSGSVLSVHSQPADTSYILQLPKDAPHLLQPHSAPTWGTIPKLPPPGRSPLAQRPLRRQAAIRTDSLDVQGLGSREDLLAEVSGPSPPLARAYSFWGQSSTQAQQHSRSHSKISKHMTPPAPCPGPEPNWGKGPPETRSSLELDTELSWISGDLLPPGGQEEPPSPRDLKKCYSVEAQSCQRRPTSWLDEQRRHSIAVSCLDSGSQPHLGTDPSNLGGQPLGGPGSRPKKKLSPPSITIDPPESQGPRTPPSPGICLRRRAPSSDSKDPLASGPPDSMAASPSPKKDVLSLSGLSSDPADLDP
assayProcedure: T-type calcium channel block, whole cell patch clamp, α1G
conditionLabel: HEK cells stably expressing human α1G; mainly non-inactivated protocol; values above 10,000 nM represented as 10000
Expressed in µM, but write only the number.

Field: example entries. Status: answers known.
Data request: Give the measured IC50 of CC([C@H]1C[C@H](NC(=O)c2ccc(F)c(Cl)c2)C1)S(=O)(=O)c1cccc(C(F)(F)F)c1 (stereo partly shown) [Compound 434] .
Data returned: 1.13

Data request: Now give it for O=C(NC[C@H]1C[C@H](S(=O)(=O)c2cccc(C(F)(F)F)c2)C1)c1cc(F)cc(Cl)c1 [Compound 370] too.
Data returned: 0.68

Data request: Now give it for O=C(N[C@H]1CC[C@@](F)(S(=O)(=O)c2cccc(C(F)(F)F)c2)CC1)C1CCCC1 [Compound 277] too.
Data returned: 2.46

Data request: Now give it for CC(C)(CNS(=O)(=O)c1cccc(C(F)(F)F)c1)S(=O)(=O)c1cccc(C(F)(F)F)c1 [Compound 495] too.
Data returned: 0.19

Data request: Now give it for CC(C)(C)S(=O)(=O)c1ccsc1C(=O)N[C@H]1CC[C@@](F)(S(=O)(=O)c2cccc(C(F)(F)F)c2)CC1 [Compound 244] too.
Data returned: 3.57

Now, please, on to the next compound.
Data request: Give the measured IC50 of O=C(N[C@H]1CC[C@](F)(S(=O)(=O)c2cccc(C(F)(F)F)c2)CC1)c1cc(C(F)(F)F)ccn1 [Compound 79] .
Data returned: 1.19
